system: MS2 coat protein; experiment: apparent KD of MS2 coat protein; designed switch direction (-1 OFF switch, 1 ON switch): -1; higher = weaker reporter binding; details: input ligand: none
Would you kindly list apparent KD of MS2 coat protein for each of these sequences?
State the answer as a number, implicitly in nM.

apparent KD of MS2 coat protein in this record for CUUUUGUGAGGAUAUUAGUAGUAAAUAAAUAAAAUUAUUACUGAGAAGGCACAUGAGGAUCACCCAUGUUCCUC [salish99_ex4_r3_062] (Eterna round: R96, puzzle: Exclusion 4) : 36.6

apparent KD of MS2 coat protein in this record for CGCUGGACAGGAUAUGUUUUUGGGCACUUGAGGAUCACCCAAGUCAUCAAGAAAACAGGCACAGAAGGGUUUAUGG [salish99_ex5_r4_022(!)] (Eterna round: R97, puzzle: Exclusion 5) : 25.1

apparent KD of MS2 coat protein in this record for UAGAUACAUGAGGAUCACCCAUGUGAGGAUAUGAGAAUUAGUUUAAAUGAAUUAAUUUUCAGAAGGCACGGAGG [JR_Ex1_Sub053] (Eterna round: R97, puzzle: Exclusion 1) : 123

apparent KD of MS2 coat protein in this record for CAAGCCUGAACGGCCGCUCACAUGAGGAUCACCCAUGUCACCUGUGCUAGAGGACCACAUUAAUCGCUUCGUCUUGG [Eternabot (L1) Solution 7] (Eterna round: R97, puzzle: Sensor, turn-off variant 1) : 88.9

apparent KD of MS2 coat protein in this record for AAUACAAGCUAUUGAUCCCACAUGAGGAUCACCCAUGUGCCUGGCCGUGAGACCAGGUUUACAAUAGCUCGUCUUAU [Sensor-V1 #47] (Eterna round: R97, puzzle: Sensor, turn-off variant 1) : 23.5

The values you see were collected from the supplement of paper PMC9170038.
